# procedureSummary: soluble on expression in E. coli; label from the status in PepcDB or PDB records
measuredAttribute: soluble on expression in E. coli

MAHHHHHHMSLCHTASRWRSVQCTGDIPPGRIGHTLCANGTETKIFLYGGVNDRNESISNYLDDLYVFDVNKKHWSKIEMTGQVQCSRAFHSAVYYEGKIYIFGGCNGRGRFNKLFSTSEEGLCAQIEASGQPPSTRYCHSAVLFERCMYIFAGKCGGRNSNRRLSDLYLFDFQTNTWMECPQHGDPPTPRSAHAAFTCGRNMIMFGGRSAQGECCEDMYMYNYDTCMWRPIESPNSGPLFGRARNSVVVHHGKVVVFGGWNGKKKLNDLFTYHVDSNTFEVMHEPDENCPSRRECHVAVVCKNTMVVFGGRFRGEFMSDTAELDLGPKTLKQNCRDWILRSSFKELHSNRGERLPLRLQQFIESWRQLICRVEKIEPRTPLQDSAPNEALSSDSNSQHG :: not soluble
MSSQLNHGTLPKISIVTPSYNQAQYLEATMRSILDQGYPDLEYIVMDGGSTDGSTEIIQKYSDRLTYWESAPDKGQADAIFRGFERATGEIFCYVNSDDLLLPGSLEMVGRWFREHPDEEWVVGGTILIDGLGIPIIRSRRGLPEADLGVKVTFKRLLLHNCGGFHQPASFWRRSAFEQAGGFDRTLRFCFDYDLFFRLAKRRPSGRIRSFLAAFRYHPASKTSTLESVFREENETLWRRYGRYLYSENQIRNFAHKQTTRDMWNNRIIKLGFYLKILNVSNAIGSLEHHHHHH :: not soluble

// provenance: the DeepSol protein solubility set
